assay: Deblocking of R-Fmoc-aniline by trifluoroacetic acid; type: physicochemical; conditions: room temperature
# label = Condition met if Time for Complete Deblocking by Trifluoroacetic Acid < 0.8 h else Condition not met

CC(C)[Si](C(C)C)(C(C)C)C1(COC(=O)Nc2ccccc2)c2ccccc2-c2ccccc21: Condition met
CC(C)(C)c1ccc2c(c1)C(COC(=O)Nc1ccccc1)([Si](C)(C)C)c1cc(C(C)(C)C)ccc1-2: Condition not met
C[Si](c1ccccc1)(c1ccccc1)C1(COC(=O)Nc2ccccc2)c2ccccc2-c2ccccc21: Condition not met
C[Si](C)(C)C1(COC(=O)Nc2ccccc2)c2ccccc2-c2ccccc21: Condition not met
C[Si](C)(c1ccccc1)C1(COC(=O)Nc2ccccc2)c2ccccc2-c2ccccc21: Condition not met

###

Time for Complete Deblocking values by entry
assay: Base deblocking of substituted urethanes (U-PCA) by various amines; format: physicochemical; details: t-butylamine 50 eq., dichloromethane, room temperature
Observation type: Time for Complete Deblocking (h)

O=C(Nc1ccc(Cl)cc1)OCC1c2ccccc2-c2ccccc21 [Fmoc-PCA, 9-fluorenylmethyl p-chlorocarbanilate, reference compound]: 5
CC(C)(C)c1ccc2c(c1)C(COC(=O)Nc1ccc(Cl)cc1)c1cc(C(C)(C)C)ccc1-2: 10
C[Si](C)(C)c1ccc2c(c1)C(COC(=O)Nc1ccc(Cl)cc1)c1cc([Si](C)(C)C)ccc1-2: 4.5

###

Time for Complete Deblocking values by entry
assay: Base deblocking of R-Fmoc-aniline by various amines; format: physicochemical; details: piperidine 100 eq., room temperature
Observation type: Time for Complete Deblocking

C[Si](c1ccccc1)(c1ccccc1)C1(COC(=O)Nc2ccccc2)c2ccccc2-c2ccccc21: 28 min
C[Si](C)(C)C1(COC(=O)Nc2ccccc2)c2ccccc2-c2ccccc21: 100 min
CC(C)(C)c1ccc2c(c1)C(COC(=O)Nc1ccccc1)([Si](C)(C)C)c1cc(C(C)(C)C)ccc1-2: 780 min
C[Si](C)(c1ccccc1)C1(COC(=O)Nc2ccccc2)c2ccccc2-c2ccccc21: 40 min

###

Assay: Base deblocking of R-Fmoc-aniline by various amines
Assay type: physicochemical
Details: morpholine 100 eq., room temperature
Description: 2. General Procedure for Studying the Base Deblocking of the Urethanes R-Fmoc-aniline (R=TMS, DMPS, DPMS, DT-TMS, TIPS): A solution of urethane (0.05 mmol) in a sample of redistilled base (5 mmol, 100 eq.) was allowed to stand at room temperature. The reaction was monitored periodically by TLC with an eluant consisting of Skelly B--CH2 Cl2 (1:1). No reaction occurred according to the TLC test for urethanes having R=TIPS in the case of any of the bases tested after 24 hours.
Time for Complete Deblocking values by entry
Observation type: Time for Complete Deblocking

C[Si](C)(c1ccccc1)C1(COC(=O)Nc2ccccc2)c2ccccc2-c2ccccc21: 47 min
C[Si](C)(C)C1(COC(=O)Nc2ccccc2)c2ccccc2-c2ccccc21: 180 min
CC(C)(C)c1ccc2c(c1)C(COC(=O)Nc1ccccc1)([Si](C)(C)C)c1cc(C(C)(C)C)ccc1-2: 960 min
C[Si](c1ccccc1)(c1ccccc1)C1(COC(=O)Nc2ccccc2)c2ccccc2-c2ccccc21: 35 min

###

Time for Complete Scavenging of Dibenzofulvene Analogs values by entry
assay: Base deblocking of substituted urethanes (U-PCA) by various amines; format: physicochemical; details: morpholine 50 eq., dichloromethane, room temperature
Observation type: Time for Complete Scavenging of Dibenzofulvene Analogs (hr)

CC(C)(C)c1ccc2c(c1)C(COC(=O)Nc1ccc(Cl)cc1)c1cc(C(C)(C)C)ccc1-2 [DT-Fmoc-PCA]: 13
O=C(Nc1ccc(Cl)cc1)OCC1c2ccccc2-c2ccccc21 [Fmoc-PCA, 9-fluorenylmethyl p-chlorocarbanilate, reference compound]: 2.5
C[Si](C)(C)C1(COC(=O)Nc2ccc(Cl)cc2)c2ccccc2-c2ccccc21 [TMS-Fmoc-PCA]: 16.5
C[Si](C)(C)c1ccc2c(c1)C(COC(=O)Nc1ccc(Cl)cc1)c1cc([Si](C)(C)C)ccc1-2 [BTS-Fmoc-PCA]: 3.5

Recorded values, source patent US5101059A.
